Biological target: human adenosine A1 receptor (hA1R) (Homo sapiens)
Construct: Steve Hill (University of Nottingham, UK); host or cells: CHO cells stably expressing hA1R; membrane preparation
Sequence (P30542 1-326): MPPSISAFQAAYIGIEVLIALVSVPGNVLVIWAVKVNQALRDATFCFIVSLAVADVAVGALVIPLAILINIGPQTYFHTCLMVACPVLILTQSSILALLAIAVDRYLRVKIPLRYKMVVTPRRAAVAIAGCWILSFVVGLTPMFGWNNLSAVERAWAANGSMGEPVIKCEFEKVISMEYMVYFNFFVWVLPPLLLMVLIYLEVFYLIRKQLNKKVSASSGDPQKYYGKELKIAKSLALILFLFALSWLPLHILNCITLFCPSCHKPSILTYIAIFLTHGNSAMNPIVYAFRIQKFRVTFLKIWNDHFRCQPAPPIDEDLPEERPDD
Assay: Radioligand displacement of [3H]-DPCPX, SPA technology
Type: binding
Settings: CHO-hA1R membranes, one-state model
readout: Ki
Phrase the answer as number then unit, nothing more needed.

## Task I'd like to know its Ki. The compound in question is N#Cc1c(N)nc(SCc2ncc[nH]2)c(C#N)c1-c1ccc(O)cc1
## Result 6.2 nM
